Recorded Kp uu for the following compounds
- assayProtocol: CNS Kpuu (r), Table C
- Assay type: in vivo
- testParameters: rat
# respond with the number and nothing more

1) C#Cc1cccc(Nc2ncnc3cc(OCCOC)c(OCCOC)cc23)c1 = 0.08
2) COc1cc2ncnc(Nc3ccc(F)c(Cl)c3)c2cc1NC(=O)/C=C/CN1CCCCC1 [Dacomitinib, reference compound] = 0.21
3) C=CC(=O)Nc1cc(Nc2nccc(-c3cn(C)c4ccccc34)n2)c(OC)cc1N(C)CCN(C)C = 0.29

response.value for COc1cc2ncnc(Nc3ccc(F)c(Cl)c3)c2cc1OCCCN1CCOCC1 (field: Kp uu) = 0.29

response.value for CN1C[C@H]2C[C@@]2(C#Cc2cc3ncnc(Nc4cccc(Cl)c4F)c3cc2NC(=O)/C=C/CN2CCOCC2)C1 (field: Kp uu) = 0.45

====

- testedOn: EGFR-R108K (Homo sapiens, UniProt P00533, R108K)
- Sequence (P00533 25-1210 R108K): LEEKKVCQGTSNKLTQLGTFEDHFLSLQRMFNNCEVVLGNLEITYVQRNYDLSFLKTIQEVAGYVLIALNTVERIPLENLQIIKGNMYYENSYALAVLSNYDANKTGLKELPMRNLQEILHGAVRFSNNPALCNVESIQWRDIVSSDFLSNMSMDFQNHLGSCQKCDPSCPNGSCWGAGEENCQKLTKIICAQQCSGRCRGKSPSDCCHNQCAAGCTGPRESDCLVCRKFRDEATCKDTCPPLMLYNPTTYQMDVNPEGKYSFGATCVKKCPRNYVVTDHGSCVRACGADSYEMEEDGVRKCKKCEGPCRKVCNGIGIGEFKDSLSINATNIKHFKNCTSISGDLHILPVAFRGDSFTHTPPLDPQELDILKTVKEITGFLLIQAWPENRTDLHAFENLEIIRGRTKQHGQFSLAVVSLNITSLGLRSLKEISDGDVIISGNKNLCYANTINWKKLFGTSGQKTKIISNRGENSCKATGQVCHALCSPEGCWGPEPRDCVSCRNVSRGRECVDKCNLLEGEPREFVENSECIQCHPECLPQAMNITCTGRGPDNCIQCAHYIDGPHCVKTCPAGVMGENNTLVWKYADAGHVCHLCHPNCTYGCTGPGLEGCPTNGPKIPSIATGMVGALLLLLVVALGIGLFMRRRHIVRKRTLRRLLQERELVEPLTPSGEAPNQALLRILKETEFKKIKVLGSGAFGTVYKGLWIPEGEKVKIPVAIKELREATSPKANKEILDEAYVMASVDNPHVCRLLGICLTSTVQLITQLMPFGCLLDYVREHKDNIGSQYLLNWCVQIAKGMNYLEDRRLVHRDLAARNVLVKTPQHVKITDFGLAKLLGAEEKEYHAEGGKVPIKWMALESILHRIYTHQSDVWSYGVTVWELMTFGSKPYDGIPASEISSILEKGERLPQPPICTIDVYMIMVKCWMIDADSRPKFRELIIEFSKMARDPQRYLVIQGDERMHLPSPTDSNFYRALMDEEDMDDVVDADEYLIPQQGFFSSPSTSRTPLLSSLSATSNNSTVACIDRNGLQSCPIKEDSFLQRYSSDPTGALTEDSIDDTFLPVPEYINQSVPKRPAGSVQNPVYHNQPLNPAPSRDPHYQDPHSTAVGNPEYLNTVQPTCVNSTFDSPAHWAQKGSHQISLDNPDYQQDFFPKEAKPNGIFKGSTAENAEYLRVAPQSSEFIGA
- assayProtocol: Anti-proliferative IC50, EGFR-R108K
endpointLabel: IC50

response.value for CN1C[C@H]2C[C@@]2(C#Cc2cc3ncnc(Nc4cccc(Cl)c4F)c3cc2NC(=O)/C=C/CN2CCOCC2)C1 (field: IC50) = < 10 nM

====

Recorded half-life for the following compounds
- assayProtocol: Pharmacokinetic (PK) parameters in mice, IV bolus and PO
- Assay type: in vivo
- testParameters: plasma; Mouse (BalbC), PO 15 mg/kg
Report as a plain number; the unit h is understood.

1. C=CC(=O)Nc1cc2c(Nc3cccc(Cl)c3F)ncnc2cc1C#C[C@@]1(C)CCN(C)C1 = 1.7

Lab note: next compound to report on.
response.value for CN1C[C@H]2C[C@@]2(C#Cc2cc3ncnc(Nc4cccc(Cl)c4F)c3cc2NC(=O)/C=C/CN2CCOCC2)C1 (field: half-life) = 3.7

====

- assayProtocol: Pharmacokinetic (PK) parameters in mice, IV bolus and PO
- Type: in vivo
- testParameters: plasma; Mouse (BalbC), PO 15 mg/kg
Recorded Cmax for the following compounds
Report as a plain number; the unit ng/mL is understood.

1. CN1C[C@H]2C[C@@]2(C#Cc2cc3ncnc(Nc4cccc(Cl)c4F)c3cc2NC(=O)/C=C/CN2CCOCC2)C1 [Compound No. 2B] = 653

Lab note: next compound to report on.
response.value for C=CC(=O)Nc1cc2c(Nc3cccc(Cl)c3F)ncnc2cc1C#C[C@@]1(C)CCN(C)C1 [Compound No. 1A] (field: Cmax) = 855

====

- assayProtocol: Pharmacokinetic (PK) parameters in mice, IV bolus and PO
- Assay type: in vivo
- testParameters: plasma; Mouse (BalbC), IV bolus 1 mg/kg
Recorded AUC(0-t) for the following molecules
Report as a plain number; the unit ng·h/mL is understood.

1. CN1C[C@H]2C[C@@]2(C#Cc2cc3ncnc(Nc4cccc(Cl)c4F)c3cc2NC(=O)/C=C/CN2CCOCC2)C1 [Compound No. 2B] = 419

Lab note: next molecule to report on.
response.value for C=CC(=O)Nc1cc2c(Nc3cccc(Cl)c3F)ncnc2cc1C#C[C@@]1(C)CCN(C)C1 [Compound No. 1A] (field: AUC(0-t)) = 1180

====

Recorded Vd for the following compounds
- assayProtocol: Pharmacokinetic (PK) parameters in mice, IV bolus and PO
- Format: in vivo
- testParameters: plasma; Mouse (BalbC), IV bolus 1 mg/kg; read-out: Vdss
Report as a plain number; the unit L/kg is understood.

1) C=CC(=O)Nc1cc2c(Nc3cccc(Cl)c3F)ncnc2cc1C#C[C@@]1(C)CCN(C)C1 [Compound No. 1A] = 0.6

Lab note: next compound to report on.
response.value for CN1C[C@H]2C[C@@]2(C#Cc2cc3ncnc(Nc4cccc(Cl)c4F)c3cc2NC(=O)/C=C/CN2CCOCC2)C1 [Compound No. 2B] (field: Vd) = 3.15
